# measured on: TarG (TarGH WTA transporter, transmembrane domain) (Staphylococcus aureus)
# Sequence (A0A0H2XIF1 1-270): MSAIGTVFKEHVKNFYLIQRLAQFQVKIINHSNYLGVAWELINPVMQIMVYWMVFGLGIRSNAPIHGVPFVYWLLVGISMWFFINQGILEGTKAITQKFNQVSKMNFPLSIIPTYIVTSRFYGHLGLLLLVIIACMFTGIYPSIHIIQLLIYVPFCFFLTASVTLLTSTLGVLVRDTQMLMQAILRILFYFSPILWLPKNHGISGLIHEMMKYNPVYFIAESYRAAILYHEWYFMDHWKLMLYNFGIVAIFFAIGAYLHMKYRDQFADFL
# Sequence (Q2FJ01 whole entry partner, the tested form may be a part): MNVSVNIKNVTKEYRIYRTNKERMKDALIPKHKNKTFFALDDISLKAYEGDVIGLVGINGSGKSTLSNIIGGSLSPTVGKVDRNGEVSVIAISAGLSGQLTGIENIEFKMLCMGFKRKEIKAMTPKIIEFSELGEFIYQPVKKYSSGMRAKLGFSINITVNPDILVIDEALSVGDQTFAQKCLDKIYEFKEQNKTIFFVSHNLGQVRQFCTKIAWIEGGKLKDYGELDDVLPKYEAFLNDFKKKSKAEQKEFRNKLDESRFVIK
property name: pIC50
Note: pIC50 values are expressed as the negative base-10 logarithm of concentration in M.

Query: Form field: reported pIC50 of Cc1c(CC(=O)N2CCC[C@H]2C(=O)O)c(=O)oc2c(C)c3occ(-c4ccc(Cl)cc4)c3cc12
Response: 5.19
